# target-desc: UniProt:O35433
# Sequence (O35433 whole entry): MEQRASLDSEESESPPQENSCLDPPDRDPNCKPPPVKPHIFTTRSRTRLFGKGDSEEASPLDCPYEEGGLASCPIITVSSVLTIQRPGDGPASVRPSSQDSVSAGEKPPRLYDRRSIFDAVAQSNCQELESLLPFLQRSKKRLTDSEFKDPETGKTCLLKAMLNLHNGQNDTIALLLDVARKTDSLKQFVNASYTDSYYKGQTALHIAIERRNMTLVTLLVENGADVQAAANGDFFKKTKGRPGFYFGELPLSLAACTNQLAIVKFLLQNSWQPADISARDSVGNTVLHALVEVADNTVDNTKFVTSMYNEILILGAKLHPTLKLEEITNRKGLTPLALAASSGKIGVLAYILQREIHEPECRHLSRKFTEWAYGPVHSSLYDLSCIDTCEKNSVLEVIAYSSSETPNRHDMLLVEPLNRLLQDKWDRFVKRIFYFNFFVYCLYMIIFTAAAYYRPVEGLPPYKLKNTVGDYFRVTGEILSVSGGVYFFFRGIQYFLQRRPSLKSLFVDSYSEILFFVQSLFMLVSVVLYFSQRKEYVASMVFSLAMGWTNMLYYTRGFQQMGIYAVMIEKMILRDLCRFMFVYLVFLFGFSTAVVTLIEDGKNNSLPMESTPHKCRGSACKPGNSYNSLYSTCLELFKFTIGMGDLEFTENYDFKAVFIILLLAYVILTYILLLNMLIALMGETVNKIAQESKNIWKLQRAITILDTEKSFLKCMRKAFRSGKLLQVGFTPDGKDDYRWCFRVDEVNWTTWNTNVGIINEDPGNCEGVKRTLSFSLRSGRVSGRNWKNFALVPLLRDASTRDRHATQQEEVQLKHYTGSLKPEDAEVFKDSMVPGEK
# protocol-description: Antagonist activity at rat TRPV1 expressed in CHO cells assessed as inhibition of acid-induced calcium influx
# Format: functional, cell-based
property: IC50

Input line: Can you look up the measured IC50 of CC(C)(C)c1ccc(Cc2cccn(-c3ccc4c(c3)OCCO4)c2=O)cc1 for me?
Output line: > 4 µM

Input line: Can you look up the measured IC50 of CC(C)(C)c1ccc(-c2ccnc(Nc3ccc4c(c3)OCCO4)n2)cc1 for me?
Output line: > 4 µM

Input line: Can you look up the measured IC50 of CC(C)(C)c1ccc(-c2cc(Cc3ccc4c(c3)OCCO4)ncn2)cc1 for me?
Output line: > 4 µM

Input line: Can you look up the measured IC50 of CC(C)(C)c1ccc(-c2cnnc(Nc3ccc4c(c3)OCCO4)c2)cc1 for me?
Output line: > 4 µM

Input line: Can you look up the measured IC50 of CC(C)(C)c1ccc(-c2cc(Nc3ccc4c(c3)OCCO4)ccn2)cc1 for me?
Output line: > 4 µM

Further cases:
Input line: Can you look up the measured IC50 of CC(C)(C)c1ccc(-c2cccc(Nc3ccc4c(c3)OCCO4)c2)cc1 for me?
Output line: > 4 µM

Input line: Can you look up the measured IC50 of CC(C)(C)c1ccc(-c2cc(Nc3ccc4c(c3)OCCO4)ncn2)cc1 for me?
Output line: 0.68 µM

Input line: Can you look up the measured IC50 of CN(c1ccc2c(c1)OCCO2)c1cc(-c2ccc(C(C)(C)C)cc2)ncn1 for me?
Output line: 2.2 µM

Input line: Can you look up the measured IC50 of CC(C)(C)c1ccc(-c2ccnc(Nc3ccc4c(c3)OCCO4)c2)cc1 for me?
Output line: 1.3 µM

Input line: Can you look up the measured IC50 of CC(C)(C)c1ccc(-c2ncnc(Nc3ccc4c(c3)OCCO4)n2)cc1 for me?
Output line: > 4 µM

Input line: Can you look up the measured IC50 of CC(C)(C)c1ccc(-c2cncc(Nc3ccc4c(c3)OCCO4)n2)cc1 for me?
Output line: > 4 µM

Input line: Can you look up the measured IC50 of CC(C)(C)c1ccc(-c2cc(Sc3ccc4c(c3)OCCO4)ncn2)cc1 for me?
Output line: > 4 µM

Input line: Can you look up the measured IC50 of CC(C)(C)c1ccc(-c2cccc(Nc3ccc4c(c3)OCCO4)n2)cc1 for me?
Output line: > 4 µM

Input line: Can you look up the measured IC50 of FC(F)(F)c1ccc(-c2cc(Nc3ccc4c(c3)OCCO4)ncn2)cc1 for me?
Output line: 1.2 µM

Input line: Can you look up the measured IC50 of CC(C)(C)c1ccc(-c2nccc(Nc3ccc4c(c3)OCCO4)n2)cc1 for me?
Output line: > 4 µM

Input line: Can you look up the measured IC50 of CC(C)(C)c1ccc(-c2cc(Oc3ccc4c(c3)OCCO4)ncn2)cc1 for me?
Output line: 0.67 µM
